Target: Thioredoxin reductase 1, cytoplasmic (Rattus norvegicus)
Assay: qHTS Assay for Inhibitors of Mammalian Selenoprotein Thioredoxin Reductase 1 (TrxR1): qHTS; note: nearly all actives have a fitted effect of over 65% in size
Settings: recombinant rTrxR1, NADPH fluorescence consumption, selenite substrate; series mostly up to 114 µM
The campaign covered roughly 390,000 compounds. About 4,000 (1%) were called active. Another 4% or so got no clear call; they are omitted. Calls come from the whole dose curve; as a rule, active = well fitted inhibition curve with a large enough effect; inconclusive = small, poorly fitted or top-dose-only effect; inactive = no such curve, though single readings can be large or run the other way. For the sample, actives were picked, then their nearest neighbours and some compounds at random.
// one of active, inactive, no free text

# Compound, Category
measured = [
    ("Cc1ccc(S(=O)(=O)N(C)C)cc1NC(=O)C1Cc2ccccc2CN1C(=O)c1ccco1 (stereo unspecified)", "active"),
    ("CN(C(=N)N)c1ccc(/C=C2\\C=Cc3ccccc32)cc1", "inactive"),
    ("Cc1ccc(CNS(=O)(=O)c2ccc(-c3cc(C(F)(F)F)on3)s2)cc1", "inactive"),
    ("COc1ccccc1/C=C/C(=O)OCC(=O)NC1CCCCCC1", "inactive"),
    ("Cc1ccc(C)c(NC(=O)C2Cc3ccccc3CN2C(=O)OCc2ccccc2)c1 (stereo unspecified)", "inactive"),
    ("COCc1ccc(C(=O)N2CCc3c([nH]c4ccccc34)C2c2ccccn2)s1 (stereo unspecified)", "inactive"),
    ("O=C(O)CCc1cccnc1", "inactive"),
    ("O=C(O)C1CC(=O)N(Cc2cccnc2)C1 (stereo unspecified)", "inactive"),
    ("CCOC(=O)C(=Cc1ccccc1OC)C(=O)OCC", "active"),
    ("O=c1[nH]c2ccccc2n2c(-c3ccccc3)nnc12", "active"),
]

What was the test verdict on OC(CBr)CN1CCCCC1 (stereo unspecified) ?
inactive

Next record, please: Cc1ccc(Cc2cnc(N)s2)o1
active

Next record, please: CCc1cc2c(cc3c(=O)n(CC(=O)NCCc4ccc(OC)c(OC)c4)ncn32)s1
inactive

Next record, please: CC(C)Cn1c(=O)c2ccccc2n2c(-c3cccc(Cl)c3)nnc12
inactive

Next record, please: Cc1cccc(S(=O)(=O)c2cn(Cc3ccccc3)c3cc(N4CCOCC4)c(F)cc3c2=O)c1
inactive

Next record, please: Cc1ccccc1CN1C[C@@H]2C[C@@H](c3cn(C)nc3-c3ccccc3)N3CCC[C@@]23C1=O
active

Data origin: PubChem BioAssay AID588453
